Kindly state pest or weed control at 250 g/ha for each of the entries shown.
# Test system: barnyardgrass (Echinochloa crus-galli)
# assay_comment: Test B flooded paddy test, barnyardgrass
# Type: in vivo
# condition_details: Echinochloa crus-galli; 250 g ai/ha, Flood; visually evaluated after 10 to 14 days; read-out: Plant response rating, Barnyardgrass (0 to 100 scale where 0 is no effect and 100 is complete control)
Numeric only. Scale: %

Recorded result, COC(=O)OCOc1c(Cl)nn(C)c(=O)c1-c1c2cc(C)ccc2cc2ccc(C)cc12 [Compound 8] , pest or weed control at 250 g/ha: 90

Recorded result, CC(=O)OCOc1c(Cl)nn(C)c(=O)c1-c1c2ccccc2cc2ccccc12 [Compound 10] , pest or weed control at 250 g/ha: 15

Recorded result, CC(=O)OCOc1c(Cl)nn(C)c(=O)c1-c1c(C)ccc2ccc(C)cc12 [Compound 3] , pest or weed control at 250 g/ha: 98

Recorded result, CC(=O)OCOc1c(Cl)nn(C)c(=O)c1-c1c(C)sc2cccc(Cl)c12 [Compound 1] , pest or weed control at 250 g/ha: 0
